Origin of values: patent US20210107874A1

- test.description: Quantitative determination of solubility of compound 5 (UPLC)
- Format: physicochemical
- experimental.conditions: aqueous acid solution (350 mM oxalic acid in water), 25 °C, aqueous buffer, thermodynamic from solid, Oxalic acid 350 mM in water, read-out: Solubility T = 3 Days Average
quantity.name: solubility at 3 days (mg/mL)
Give bare numbers, in mg/mL.

Entry COc1cc(NCCNC(=O)/C=C/C(C)(F)F)ccn1 : reported solubility at 3 days = ?
155

###

- test.description: PK studies of formulations, plasma by HPLC-MS/MS
- Type: in vivo
- experimental.conditions: bovine, plasma, sc, 1.25 mg/kg, pH 4.3, FormQ62.5 (L-tartaric acid, sodium carboxymethyl cellulose, NaOH up to pH 4.3, water), Cattle, 1.25 mg/kg, read-out: AUC
- Protocol: The following formulations were prepared and administered to animals. Blood samples were collected at pre-defined time points and the amount of compound present in plasma at the time of sampling was determined by HPLC-MS/MS. Pharmacokinetic parameters were then calculated: Cmax, Tmax, Tlast, AUC. [table]
quantity.name: AUC
Kindly write the number and append the unit.

// lookup AUC for CCOc1cc(NCCNC(=O)/C=C/C(F)(F)F)ccn1
356 ng·h/mL
